# measurementTarget: furin, P09958;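 further: purified furin at 1:10 enzyme:substrate in 50 mM HEPES pH 7.5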
# Sequence (P09958 whole entry): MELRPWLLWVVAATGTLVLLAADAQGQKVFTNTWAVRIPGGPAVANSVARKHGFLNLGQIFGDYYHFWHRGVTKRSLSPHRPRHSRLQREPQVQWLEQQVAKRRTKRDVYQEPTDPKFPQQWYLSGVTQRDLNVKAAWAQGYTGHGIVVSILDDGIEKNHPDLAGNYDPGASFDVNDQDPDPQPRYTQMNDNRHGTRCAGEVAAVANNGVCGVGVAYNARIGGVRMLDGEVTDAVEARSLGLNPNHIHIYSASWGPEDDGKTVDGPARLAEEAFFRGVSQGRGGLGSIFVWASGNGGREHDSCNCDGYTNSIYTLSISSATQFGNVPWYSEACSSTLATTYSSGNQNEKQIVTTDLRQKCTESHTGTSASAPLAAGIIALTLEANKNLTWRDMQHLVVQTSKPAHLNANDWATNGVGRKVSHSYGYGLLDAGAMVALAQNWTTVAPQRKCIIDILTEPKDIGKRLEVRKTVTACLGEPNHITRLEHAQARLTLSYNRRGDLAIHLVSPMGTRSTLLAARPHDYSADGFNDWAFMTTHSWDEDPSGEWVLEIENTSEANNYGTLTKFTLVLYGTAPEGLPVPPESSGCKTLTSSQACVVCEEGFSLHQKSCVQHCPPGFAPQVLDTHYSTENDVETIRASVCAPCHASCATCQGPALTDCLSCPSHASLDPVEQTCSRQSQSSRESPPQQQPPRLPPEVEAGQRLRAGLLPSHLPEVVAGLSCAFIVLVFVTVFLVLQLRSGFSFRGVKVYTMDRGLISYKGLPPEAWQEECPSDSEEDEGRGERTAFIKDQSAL
# protocolDetails: furin cleavage Z-score vs untreated control; higher = more cleavage, active = 3.5 or more, inactive = 1 or less, 8 variable residues between constant flanks
# testParameters: 7.5 min
Some of the results follow. How many sequences the whole screen found active is unknown.
Outcomes: active, inactive

• CAKQRRLPRSAGNASASA [FS-678] = active
• CAAPQRLPRSAGNASASA [FS-1305] = active
• CATDFDQGWGAGNASASA [HC392] = inactive
• CAPAARRRRSAGNASASA [FS-1146] = active
• CAAEGWWARSAGNASASA [FS-394] = inactive
• CAPDLGVRVCAGNASASA [HC1452] = inactive
• CAEGVFTGLTAGNASASA [HC940] = inactive
• CALAARRRRSAGNASASA [FS-264] = active
• CAVFKRRRRSAGNASASA [FS-1101] = active
• CALAARGARLAGNASASA [FS-682] = inactive
• CAPAARFKKFAGNASASA [FS-367] = inactive
• CATTWCSGSWAGNASASA [HC1868] = inactive
• CAMREVPCHRAGNASASA [HC2426] = inactive
• CARSACQRQKAGNASASA [HC1392] = inactive
